- reported_conditions: both, human, plasma, oral, tmax, prasugrel phase; median (range)
observable: tmax (h)
Hi! Could you send only the number? It should be in h, unit omitted.

// tmax lookup, key: CC(C)(O)c1ccccc1CC[C@@H](SCC1(CC(=O)O)CC1)c1cccc(/C=C/c2ccc3ccc(Cl)cc3n2)c1 3

====

- reported_conditions: both, human, plasma, oral, tmax, clopidogrel phase; median (range)
observable: tmax (h)
Hi! Could you send only the number? It should be in h, unit omitted.

// tmax lookup, key: CC(C)(O)c1ccccc1CC[C@@H](SCC1(CC(=O)O)CC1)c1cccc(/C=C/c2ccc3ccc(Cl)cc3n2)c1 4.5

====

- reported_conditions: both, human, plasma, oral, t½, clopidogrel phase; geometric mean (geometric CV)
observable: half-life

// half-life lookup, key: CC(C)(O)c1ccccc1CC[C@@H](SCC1(CC(=O)O)CC1)c1cccc(/C=C/c2ccc3ccc(Cl)cc3n2)c1 [Montelukast] 8.2 h
